target: bradykinin 1 receptor (B1R) of the rat (Rattus norvegicus, UniProt P97583); construct: expressed in transfected cells; host or cells: CHO K1 cells; assay: Functional investigation on the rat bradykinin 1 receptor (B1R), Ca2+ FLIPR assay in CHO K1 rB1R cells; type: cell-based; details: B1R antagonism rat; test substance 10 μM; Ca2+ FLIPR, CHO K1 rB1R cells
Sequence (P97583 whole entry): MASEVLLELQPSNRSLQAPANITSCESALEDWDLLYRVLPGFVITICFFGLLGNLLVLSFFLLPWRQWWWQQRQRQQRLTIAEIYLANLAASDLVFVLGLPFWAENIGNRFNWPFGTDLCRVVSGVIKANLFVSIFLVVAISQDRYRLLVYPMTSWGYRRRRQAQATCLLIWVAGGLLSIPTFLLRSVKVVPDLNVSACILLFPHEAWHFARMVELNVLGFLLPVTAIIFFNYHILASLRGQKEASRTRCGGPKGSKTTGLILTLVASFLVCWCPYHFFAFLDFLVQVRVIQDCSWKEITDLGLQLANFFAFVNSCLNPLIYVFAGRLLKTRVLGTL
Use 30% as the dividing line for B1R Ant. r [10 μM] % Inhibition, with the line itself on the Y side and lower values as N.

Some solved entries appear below for comparison.
COc1ccc(S(=O)(=O)N(C)CCOCC(=O)NC2CCC(C(c3cccc(F)c3)N(C)C)CC2)cc1 (stereo not shown): Y
COc1ccc(S(=O)(=O)N2CCCCC2COCC(=O)NC2CCC(C(c3cccc(F)c3)N(C)C)CC2)cc1OC (stereo not shown): N
CN(C)C(c1ccc(Cl)cc1)C1CCC(CCNC(=O)COCCN(C)S(=O)(=O)c2ccc(F)cc2)CC1 (stereo not shown): N

input: Determine whether this molecule has B1R Ant. r [10 μM] % Inhibition no lower than 30%: Cc1cc(C)c(S(=O)(=O)N(C)CCOCC(=O)NCCC2CCC(C(c3cccc(F)c3)N(C)C)CC2)c(C)c1 (stereo not shown)
output: N

input: Try this molecule next: CN(C)C(c1ccc(Cl)cc1)C1CCC(CNC(=O)COCCN(C)S(=O)(=O)c2ccc(Cl)cc2)CC1 (stereo not shown)
output: Y

input: Consider next the molecule CN(C)C(c1ccc(F)cc1)C1CCC(CNC(=O)COC2CCN(S(=O)(=O)c3ccc(Cl)cc3)C2)CC1 (stereo not shown) in the same way.
output: Y

input: Then what about the molecule CN(C)C(c1ccc(F)cc1)C1CCC(CNC(=O)COCCN(C)S(=O)(=O)c2ccc(Cl)cc2)CC1 (stereo not shown) ?
output: N

---

biological target: serotonin (5-HT) reuptake (Rattus norvegicus); construct: synaptosomes are freshly isolated from areas of the rat brain; from tissue; host or cells: rat brain synaptosomes (P2 fraction); test: Inhibition of serotonin (5HT) reuptake in synaptosomes from rat brain; format: biochemical; details: test concentration of 10 μM; read-out: 5-HT (inhibition of reuptake of serotonin, % inhibition)
Sequence (P31652 whole entry): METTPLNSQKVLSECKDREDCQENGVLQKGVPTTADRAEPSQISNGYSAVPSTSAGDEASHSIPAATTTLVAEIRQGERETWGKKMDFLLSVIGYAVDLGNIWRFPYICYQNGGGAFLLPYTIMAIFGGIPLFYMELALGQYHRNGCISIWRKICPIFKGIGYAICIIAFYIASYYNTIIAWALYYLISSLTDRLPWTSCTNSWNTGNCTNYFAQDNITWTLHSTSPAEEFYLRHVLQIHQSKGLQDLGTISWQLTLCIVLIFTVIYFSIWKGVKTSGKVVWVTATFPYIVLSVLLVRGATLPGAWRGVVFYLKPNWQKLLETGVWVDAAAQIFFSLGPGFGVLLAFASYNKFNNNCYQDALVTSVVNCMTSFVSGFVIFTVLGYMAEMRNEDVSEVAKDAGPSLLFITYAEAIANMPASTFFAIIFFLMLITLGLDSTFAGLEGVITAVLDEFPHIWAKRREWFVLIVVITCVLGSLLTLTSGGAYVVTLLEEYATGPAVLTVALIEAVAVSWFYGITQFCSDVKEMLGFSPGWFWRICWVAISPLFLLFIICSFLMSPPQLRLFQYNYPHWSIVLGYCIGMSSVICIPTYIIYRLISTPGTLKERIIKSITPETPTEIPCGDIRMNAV
So I've got a bunch of compounds here, and I need their inhibition at 10 µM values.
Give bare numbers, in %.

# annotated cases, reported inhibition at 10 µM shown
COc1cc(C)c(S(=O)(=O)N(C)CCOCC(=O)NC2CCC(C(c3cccc(F)c3)N(C)C)CC2)c(C)c1C (stereo not shown): 72
CN(C)C(c1ccccc1)C1CCC(CNC(=O)COCCN(C)S(=O)(=O)c2c(Cl)cccc2Cl)CC1 (stereo not shown): 84
COc1cc(C)c(S(=O)(=O)N2CCC(OCC(=O)NC3CCC(C(c4cccc(F)c4)N(C)C)CC3)C2)c(C)c1C (stereo not shown): 96

Then this compound:
input: Quick one: inhibition at 10 µM of COc1ccc(S(=O)(=O)N2CCCCC2CCOCC(=O)NCC2CCC(C(c3cccs3)N(C)C)CC2)cc1 (stereo not shown) ?
output: 94

---

I'd appreciate it if you could supply B1R Ant. h [10 μM] % Inhibition values for the items below.
biological target: human bradykinin 1 receptor (B1R) (Homo sapiens, UniProt P46663); construct: expressed in transfected cells; host or cells: CHO K1 cells; assay: Functional investigation on the human bradykinin 1 receptor (B1R), Ca2+ FLIPR assay in CHO K1 hB1R cells; assay type: cell-based; details: B1R antagonism human; test substance 10 μM; Ca2+ FLIPR, CHO K1 hB1R cells
Numbers only, in %.

For each of the items listed, what is its B1R Ant. h [10 μM] % Inhibition?
1. CN(C)C(c1ccc(Cl)cc1)C1CCC(CCNC(=O)COC2CCN(S(=O)(=O)c3ccccc3)C2)CC1 (stereo not shown)
2. CCN(CCOCC(=O)NCCC1CCC(C(c2ccc(Cl)cc2)N(C)C)CC1)S(=O)(=O)c1c(C)cc(OC)c(C)c1C (stereo not shown)
3. COc1cc(C)c(S(=O)(=O)N2CCCC(OCC(=O)NCCC3CCC(C(c4cccc(F)c4)N(C)C)CC3)C2)c(C)c1C (stereo not shown)
4. CCN(CCOCC(=O)NC1CCC(C(c2ccc(F)cc2)N(C)C)CC1)S(=O)(=O)c1c(C)cc(OC)c(C)c1C (stereo not shown)
5. CN(C)C(c1ccc(F)cc1)C1CCC(CNC(=O)COC2CCN(S(=O)(=O)c3ccccc3)CC2)CC1 (stereo not shown)

output:
1. 2
2. 47
3. 21
4. 70
5. −20

List the reported B1R Ant. h [10 μM] % Inhibition of each compound below.
1. COc1ccc(S(=O)(=O)N2CCCCC2COCC(=O)NCC2CCC(C(c3cccc(F)c3)N(C)C)CC2)cc1OC (stereo not shown)
2. COc1ccc(S(=O)(=O)N2CCCCC2CCOCC(=O)NCC2CCC(C(c3ccc(F)cc3)N(C)C)CC2)cc1 (stereo not shown)

output:
["−17", 57]

---

biological target: serotonin (5-HT) reuptake (Rattus norvegicus); construct: synaptosomes are freshly isolated from areas of the rat brain; from tissue; host or cells: rat brain synaptosomes (P2 fraction); assay: Inhibition of serotonin (5HT) reuptake in synaptosomes from rat brain; assay type: biochemical; details: test concentration of 10 μM; read-out: 5-HT (inhibition of reuptake of serotonin, % inhibition)
Binary classification by inhibition at 10 µM, with 90% as an inclusive lower bound for true; all other cases are false.

Observe how each entry below is paired with its result.
CN(C)C(c1cccc(F)c1)C1CCC(NC(=O)COCCN(C)S(=O)(=O)c2c(Cl)cccc2Cl)CC1 (stereo not shown): false
COc1cc(C)c(S(=O)(=O)N2CCC(OCC(=O)NCC3CCC(C(c4cccs4)N(C)C)CC3)C2)c(C)c1 (stereo not shown): true

input: Could you verify whether the entry COc1cc(C)c(S(=O)(=O)N2CCC(OCC(=O)NCCC3CCC(C(c4cccs4)N(C)C)CC3)CC2)c(C)c1C (stereo not shown) shows inhibition at 10 µM of no less than 90%?
output: true

input: Quick one: CN(C)C(c1cccs1)C1CCC(CCNC(=O)COCCN(Cc2ccccc2)S(=O)(=O)c2ccccc2)CC1 (stereo not shown)
output: true

input: Now this one: CN(C)C(c1cccs1)C1CCC(CNC(=O)COC2CCN(S(=O)(=O)c3ccccc3)C2)CC1 (stereo not shown)
output: true

---

target: serotonin (5-HT) reuptake (Rattus norvegicus); construct: synaptosomes are freshly isolated from areas of the rat brain; from tissue; host or cells: rat brain synaptosomes (P2 fraction); experiment: Inhibition of serotonin (5HT) reuptake in synaptosomes from rat brain; format: biochemical; details: Table 2; test concentration 10 μM; read-out: 5-HT reuptake
Please enter fulfilled where inhibition at 10 µM is greater than or equal to 70%, and not fulfilled where it is lower.

The examples below pair each entry with its known result.
CN(C)C(c1ccccc1)C1CCC(NC(=O)COC2CCCN(S(=O)(=O)c3c(Cl)cc(Cl)cc3Cl)C2)CC1 (stereo not shown): fulfilled
CN(C)C(c1ccccc1)C1CCC(NC(=O)COCCN(C2CC2)S(=O)(=O)c2c(Cl)cc(Cl)cc2Cl)CC1 (stereo not shown): not fulfilled
CN(Cc1ccccc1)C(c1ccccc1)C1CCC(NC(=O)COCCN(C)S(=O)(=O)c2c(Cl)cc(Cl)cc2Cl)CC1 (stereo not shown): not fulfilled
O=C(COCCN(C1CC1)S(=O)(=O)c1c(Cl)cc(Cl)cc1Cl)NC1CCC(C(c2ccccc2)N2CCCC2)CC1 (stereo not shown): fulfilled
CN(CCOCC(=O)NC1CCC(C(c2ccccc2)N2CCCC2)CC1)S(=O)(=O)c1c(Cl)cc(Cl)cc1Cl (stereo not shown): fulfilled

input: Could you please find out whether CN(C)C(c1ccccc1)C1CCC(NC(=O)COCCN(C)S(=O)(=O)c2c(Cl)cc(Cl)cc2Cl)C1 (stereo not shown) has inhibition at 10 µM that meets 70% or exceeds it?
output: fulfilled

input: CN(C)C(c1ccccc1)C1CCC(CNC(=O)COCCN(C)S(=O)(=O)c2c(Cl)cc(Cl)cc2Cl)CC1 (stereo not shown) ?
output: fulfilled

---

Target: human bradykinin 1 receptor (B1R) (Homo sapiens, UniProt P46663)
Construct: expressed in transfected cells; host or cells: CHO K1 cells
Sequence (P46663 1-353): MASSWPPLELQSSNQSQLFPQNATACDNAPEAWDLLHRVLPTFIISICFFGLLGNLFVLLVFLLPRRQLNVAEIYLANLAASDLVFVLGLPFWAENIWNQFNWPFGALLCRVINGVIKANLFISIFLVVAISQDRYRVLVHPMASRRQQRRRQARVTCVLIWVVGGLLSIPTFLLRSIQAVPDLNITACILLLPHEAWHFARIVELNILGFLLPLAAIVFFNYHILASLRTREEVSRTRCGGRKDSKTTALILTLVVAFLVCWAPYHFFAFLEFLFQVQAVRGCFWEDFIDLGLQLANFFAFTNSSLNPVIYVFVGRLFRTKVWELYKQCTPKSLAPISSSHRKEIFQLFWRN
Assay: Functional investigation on the human bradykinin 1 receptor (B1R), Ca2+ FLIPR assay in CHO K1 hB1R cells
Assay type: cell-based
Details: CHO-K1, B1R antagonism human; test substance 10 μM; Ca2+ FLIPR, CHO K1 hB1R cells; read-out: B1R Ant. h [10 μM] % Inhibition
Class assignment keyed on inhibition at 10 µM, ranges one: < 20%; two: ≥ 20% and < 50%; three: ≥ 50%

CN(C)C(c1cccc(F)c1)C1CCC(NC(=O)COC2CCN(S(=O)(=O)c3cccc(C(F)(F)F)c3)C2)CC1 (stereo not shown): one
CN(C)C(c1ccccc1)C1CCC(CNC(=O)COC2CCCN(S(=O)(=O)c3ccccc3)C2)CC1 (stereo not shown): one
CN(C)C(c1ccccc1)C1CCC(CNC(=O)COCC2CCCCN2S(=O)(=O)c2ccc(Cl)c(Cl)c2)CC1 (stereo not shown): three
Cc1cc(C)c(S(=O)(=O)N2CCC(OCC(=O)NCC3CCC(C(c4cccc(F)c4)N(C)C)CC3)C2)c(C)c1 (stereo not shown): three
O=C(COCC1CCCCN1S(=O)(=O)c1c(Cl)cc(Cl)cc1Cl)NCC1CCC(C(c2ccccc2)N2CCOCC2)CC1 (stereo not shown): two

input: Category of CN(CCOCC(=O)NC1CCC(C(c2ccccc2)N2CCOCC2)CC1)S(=O)(=O)c1ccc(Cl)cc1Cl (stereo not shown) :
output: two

input: Repeat for the following molecule: O=C(COCC1CCCN(S(=O)(=O)c2c(Cl)cc(Cl)cc2Cl)C1)NC1CCC(C(c2ccccc2)N2CCCC2)CC1 (stereo not shown)
output: three

input: Also CN(C)C(c1cccc(F)c1)C1CCC(CCNC(=O)COCCN(C)S(=O)(=O)c2cccc(C(F)(F)F)c2)CC1 (stereo not shown) ?
output: two

input: CN(C)C(c1cccc(F)c1)C1CCC(CNC(=O)CNC(=O)c2nc(-c3ccc(C(F)(F)F)cc3)no2)CC1 (stereo not shown) ?
output: one
